# Species: Homo sapiens
# TEST DESCRIPTION: Selectivity ratio of Ki for human CB1 to Ki for human CB2
Would you mind labelling by log(ratioKi)? At or over 2 is true (1), under is false (0).

> print(dat)
                                    compound        cat
 1  CCCCCCn1cc(C(=O)NC2CCCCC2)c(=O)c2ccc(C)nc21  false (0)
 2  COc1ccc2c(c1)c(CCN1CCOCC1)c(C)n2C(=O)c1cccc(Cl)c1Cl   true (1)
 3  CCCCCn1cc(C(=O)NC23CC4CC(CC(C4)C2)C3)c(=O)c2cc(CCc3ccccc3)ccc21   true (1)
 4  CCCCCCC1(c2cc(O)c3c(c2)OC(C)(C)[C@@H]2CC=C(C)C[C@@H]32)CC1(Cl)Cl (some centres undefined)  false (0)
 5  CCCCCn1cc(C(=O)NC23CC4CC(CC(C4)C2)C3)c(=O)c2cccc(C)c21   true (1)
 6      O=C(c1cn(CC2CCOCC2)c2ccccc12)C1CCCC1  false (0)
 7  Cc1ccc2c(=O)c(C(=O)NC3CCCC3)cn(CCN3CCOCC3)c2n1  false (0)
 8  CC1(C)C(C(=O)c2cn(CC3CCOCC3)c3cc(-c4ccccc4)ccc23)C1(C)C   true (1)
 9  CC1=CC[C@@H]2[C@@H](C1)c1c(O)cc(C(C)(C)c3cccs3)cc1OC2(C)C  false (0)
10  CCC1CCC(C(=O)c2cn(CCN3CCOCC3)c3ccccc23)CC1 (centres undefined)  false (0)

Decide: log(ratioKi) of `CCCCCn1c(C)c(C(=O)c2ccc(CCC)c3ccccc23)c2ccccc21` >= 2?
false (0)

// data source = ChEMBL document CHEMBL1667752
